target.entity: T1, sEGFR-MMB (dimeric soluble EGFR ectodomain mimetibody) (human)
T1 construct: also called sEGFR mimetibody; sEGFR-Fc
assay.details: phage ELISA on coated sEGFR-MMB, chemiluminescence; background typically <200 units
Bridges are numbered along the chain shown (N, C = ends). Where no end group is shown, it is not given here.
ELISA signal of 7000 units or higher: Criterion met. Under 7000 units: Criterion not met.

binder	classification
GGGKTCVSTTFDLWFVCFA (disulfide 6-17; also: displayed on whole phage via pIX, Tested as whole phage, pIX phagemid display; also called PP176) [phage P176 (pIX S20)]	Criterion met
GGGLLCATTSFRDWFVCFT (Tested as whole phage, pIX phagemid display) [S20 library phage hit SEQ ID NO: 49]	Criterion not met
GGGWMCFLEGYGASLMCQC (Tested as whole phage, pIX phagemid display) [S20 library phage hit SEQ ID NO: 44]	Criterion not met
GGGSVCVGTAFPGWMVCGP (Tested as whole phage, pIX phagemid display) [S20 library phage hit SEQ ID NO: 47]	Criterion not met
GGGDSCCSFLTDGTVVCSL (Tested as whole phage, pIX phagemid display) [S20 library phage hit SEQ ID NO: 45]	Criterion met
GGGYICTPSDIDSWYICYL (Tested as whole phage, pIX phagemid display) [S20 library phage hit SEQ ID NO: 46]	Criterion not met
GGGPTCDSATRRVLTICAD (Tested as whole phage, pIX phagemid display) [S20 library phage hit SEQ ID NO: 43]	Criterion not met
